Values were extracted from patent US20180116960A1.

Assay: solubility of terbinafine HCl in solvents
Type: physicochemical
Conditions: aqueous with cosolvent or surfactant or cyclodextrin, thermodynamic from solid; 0.1% Tween-80 in water, terbinafine HCl in terbinafine HCl-PEG 3350 blend (75/25, W/W), final pH 3.0
Counter-ions that a name gives are not always drawn.
observation-type: solubility

Req: Quick check: solubility of CN(C/C=C/C#CC(C)(C)C)Cc1cccc2ccccc12 [terbinafine HCl] ?
Resp: 4000 µg/mL

----------
Assay: solubility of terbinafine HCl in solvents
Assay type: physicochemical
Conditions: DMSO, organic solvent or mixture, thermodynamic from solid
Where a name gives a salt, the structure may show the parent alone.
observation-type: solubility at 5 min

Req: Quick check: solubility at 5 min of CN(C/C=C/C#CC(C)(C)C)Cc1cccc2ccccc12 [terbinafine HCl] ?
Resp: ~100 mg/mL
